Origin of values: PubChem BioAssay (NCATS)

assay: qHTS of pediatric cancer cell lines to identify multiple opportunities for drug repurposing: Primary screen for NB-EBc1 cells (AID 1347095); conditions: NB-EBc1 neuroblastoma viability, CellTiter-Glo luminescence, 48 h; series mostly up to 46 µM
Records with an inconclusive call do not appear. The source made the active and inactive calls. Calls come from the whole dose curve; as a rule, active = well fitted cell-killing curve with a large enough effect; inconclusive = small, poorly fitted or top-dose-only effect; inactive = no such curve, though single readings can be large or run the other way.
Classes used: 1 (active), -1 (inactive)

[[record]]
compound = "c1cc(CN2CCCCC2)cc(OCCCNc2nc3ccccc3s2)c1"
label_class = -1

[[record]]
compound = "C[N+](C)(C)CCOC(=O)CCC(=O)OCC[N+](C)(C)C"
label_class = -1

[[record]]
compound = "Cc1ccc(S(=O)(=O)NC(=O)NN2CCCCCC2)cc1"
label_class = -1

[[record]]
compound = "Nc1nc(N)c2nc(-c3ccccc3)c(N)nc2n1"
label_class = 1

[[record]]
compound = "C[C@]12CCC(=O)C=C1CC[C@@H]1[C@@H]2CC[C@@]2(C)[C@H]1CC[C@]2(O)C(=O)CO"
label_class = -1

[[record]]
compound = "CCCOc1ccccc1-c1nc2n[nH]nc2c(=O)[nH]1"
label_class = -1

[[record]]
compound = "CCn1ccnc1CC1COc2ccccc2O1 (configuration not stated)"
label_class = -1

[[record]]
compound = "CC(C(=O)O)c1ccc(CC2CCCC2=O)cc1 (configuration not stated)"
label_class = -1

[[record]]
compound = "C[N+](C)(C)CCCCCCCCCC[N+](C)(C)C"
label_class = -1

[[record]]
compound = "O=C(CCNNC(=O)c1ccncc1)NCc1ccccc1"
label_class = -1

[[record]]
compound = "OCCN1CCN(CCCN2c3ccccc3C=Cc3ccccc32)CC1"
label_class = -1

[[record]]
compound = "COCCCC/C(=N\\OCCN)c1ccc(C(F)(F)F)cc1"
label_class = -1


====

assay: Primary qHTS for inhibitors of nuclear receptor binding SET domain protein 2 (NSD2) in an RCH-ACV wild type WT cells (2C) (AID 1645877); details: RCH-ACV (leukaemia line) NSD2 WT (2C) viability, CellTiter-Glo, 72 h; series mostly up to 44.9 µM; note: nearly all actives have a fitted effect of over 70% in size
Inconclusive results are not listed. Activity calls are given as the source filed them. Calls come from the whole dose curve; as a rule, active = well fitted inhibition curve with a large enough effect; inconclusive = small, poorly fitted or top-dose-only effect; inactive = no such curve, though single readings can be large or run the other way.
Classes used: active, inactive

[[record]]
molecule = "COC(=O)[C@H]1[C@H]2C[C@@H]3c4[nH]c5cc(OC)ccc5c4CCN3C[C@H]2C[C@@H](OC(=O)c2cc(OC)c(OC)c(OC)c2)[C@@H]1OC"
label_class = "inactive"

[[record]]
molecule = "NC(=O)c1ncn([C@@H]2O[C@H](CO)[C@@H](O)[C@H]2O)c1O"
label_class = "inactive"

[[record]]
molecule = "CC(=O)OC(C)C[N+](C)(C)C (configuration not stated)"
label_class = "inactive"

[[record]]
molecule = "CC(C(=O)O)c1ccc(CC2CCCC2=O)cc1 (configuration not stated)"
label_class = "inactive"

[[record]]
molecule = "FC(F)(F)c1ccccc1-n1ccnc1"
label_class = "inactive"

[[record]]
molecule = "CCN1CCc2nc(N)oc2CC1"
label_class = "inactive"

[[record]]
molecule = "CC1=C(C)C(=O)C(CCCCC#CCCCC#CCO)=C(C)C1=O"
label_class = "active"

[[record]]
molecule = "CN(C(=O)CCCOc1ccc2[nH]c(=O)ccc2c1)C1CCCCC1"
label_class = "inactive"

[[record]]
molecule = "CCCNC(C)C(=O)Nc1ccccc1C (configuration not stated)"
label_class = "inactive"

[[record]]
molecule = "COCCOC(=O)C1=C(C)NC(C)=C(C(=O)OC(C)C)C1c1cccc([N+](=O)[O-])c1 (configuration not stated)"
label_class = "inactive"

[[record]]
molecule = "CCCCCCCC/C=C\\CCCCCCCC(=O)NCc1ccc(O)c(OC)c1"
label_class = "active"

[[record]]
molecule = "CC1=NS(=O)(=O)c2cc(Cl)ccc2N1"
label_class = "inactive"


====

Here, each record is paired with measured viability change data.
test: Nrf2 qHTS screen for inhibitors: Validation (AID 493153); conditions: A549 ARE-Fluc reporter, 18-24 h; measured here: cytotoxicity max response
Records with an inconclusive call do not appear.
readout kind: viability change (%)

[[record]]
compound = "Cc1cccc(C)c1NC(=O)C(C)N (stereo not drawn)"
reading = 3.48

[[record]]
compound = "CCNC(=O)N1CCN(CCCC(c2ccc(F)cc2)c2ccc(F)cc2)CC1"
reading = -3.28

[[record]]
compound = "Cc1ccc(=O)n(-c2ccccc2)c1"
reading = -2.33

[[record]]
compound = "CN1CCN(C2=Nc3ccccc3Oc3ccc(Cl)cc32)CC1"
reading = -14.3

[[record]]
compound = "CCN1CCC[C@H]1CNC(=O)c1c(O)c(Cl)cc(Cl)c1OC"
reading = -0.523

[[record]]
compound = "FC(F)(F)c1ccccc1-n1ccnc1"
reading = 12.3

[[record]]
compound = "CCN(CC)CCNC(=O)c1ccc(NC(C)=O)cc1"
reading = 16.6

[[record]]
compound = "OCCN1CCN(CC/C=C2/c3ccccc3Sc3ccc(C(F)(F)F)cc32)CC1"
reading = -4.74

[[record]]
compound = "CSc1ccc(C(=O)c2[nH]c(=O)[nH]c2C)cc1"
reading = 0

[[record]]
compound = "CN1C(=O)CC[C@H]1c1cccnc1"
reading = 0.268

[[record]]
compound = "Cc1nc2c([nH]1)c(=O)n(C)c(=O)n2Cc1ccco1"
reading = -1.43

[[record]]
compound = "NCCCNCCSP(=O)(O)O"
reading = 4.69

[[record]]
compound = "CC(=O)Oc1cc(C(C)C)c(OCCN(C)C)cc1C"
reading = -6.98


====

target: Mitogen-activated protein kinase 10 (Mus musculus); assay: JNK3 AlphaScreen Assay (AID 530); settings: JNK3 lysate, c-Jun phosphorylation; series mostly up to 57.1 µM;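 note: kinase came from lysate of stimulated human HepG2 cells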
Inconclusive results are not listed. Activity calls are given as the source filed them. The call rests on the fitted dose curve; in most records, active means well fitted curve in either direction with a large enough effect (not every such curve was filed as active); inconclusive means small, poorly fitted or top-dose-only effect, or another doubt; inactive means flat fitted curve, though single readings scatter.
Classes used: y = active, n = inactive

[[record]]
cpd_smiles = "COc1cc2c(cc1OC)-c1cc(=Nc3c(C)cc(C)cc3C)n(C)c(=O)n1CC2"
system_tested = "Mitogen-activated protein kinase 10 (Mus musculus)"
label_class = "n"

[[record]]
cpd_smiles = "O=C1CC2(CCCC2)CC(=O)N1CCCCN1CCN(c2ncccn2)CC1"
system_tested = "Mitogen-activated protein kinase 10 (Mus musculus)"
label_class = "n"

[[record]]
cpd_smiles = "CN(C)CCOC(=O)COc1ccc(Cl)cc1"
system_tested = "Mitogen-activated protein kinase 10 (Mus musculus)"
label_class = "n"

[[record]]
cpd_smiles = "C[N+](C)(C)CCCCCCCCCC[N+](C)(C)C"
system_tested = "Mitogen-activated protein kinase 10 (Mus musculus)"
label_class = "n"

[[record]]
cpd_smiles = "CN1CCN(C2=Nc3ccccc3Oc3ccc(Cl)cc32)CC1"
system_tested = "Mitogen-activated protein kinase 10 (Mus musculus)"
label_class = "n"

[[record]]
cpd_smiles = "CN(C)C(=O)Oc1cccc([N+](C)(C)C)c1"
system_tested = "Mitogen-activated protein kinase 10 (Mus musculus)"
label_class = "n"

[[record]]
cpd_smiles = "c1cnc(N2CCN(Cc3ccc4c(c3)OCO4)CC2)nc1"
system_tested = "Mitogen-activated protein kinase 10 (Mus musculus)"
label_class = "n"

[[record]]
cpd_smiles = "CCC(=O)c1ccc2c(c1)N(CCCN(C)C)c1ccccc1S2"
system_tested = "Mitogen-activated protein kinase 10 (Mus musculus)"
label_class = "n"

[[record]]
cpd_smiles = "CN(C)CCCN1c2ccccc2Sc2ccc(C(F)(F)F)cc21"
system_tested = "Mitogen-activated protein kinase 10 (Mus musculus)"
label_class = "n"

[[record]]
cpd_smiles = "CCN(CC)CCNC(=O)c1cc(S(C)(=O)=O)ccc1OC"
system_tested = "Mitogen-activated protein kinase 10 (Mus musculus)"
label_class = "n"

[[record]]
cpd_smiles = "Cc1ccc(=O)n(-c2ccccc2)c1"
system_tested = "Mitogen-activated protein kinase 10 (Mus musculus)"
label_class = "y"

[[record]]
cpd_smiles = "COC(=O)[C@@H](N)Cc1ccc(O)c(O)c1"
system_tested = "Mitogen-activated protein kinase 10 (Mus musculus)"
label_class = "n"


====

test system: DIV14; test: qHTS profiling for inhibitors of Plasmodium falciparum proliferation (AID 504749); note: nearly all actives have a fitted effect of over 60% in size; note: potency is the fitted concentration of half-maximal effect; conditions: P. falciparum in erythrocytes, SYBR Green DNA, 72 h; series mostly up to 28.7 µM
Inconclusive results are not listed. Active and inactive are the calls of the source. The call rests on the fitted dose curve; in most records, active means well fitted inhibition curve with a large enough effect; inconclusive means small, poorly fitted or top-dose-only effect; inactive means flat fitted curve, though single readings scatter.
readout kind: Potency

[[record]]
molecule = "CN(C)CCN(Cc1cccs1)c1ccccn1"
system_tested = "DIV14"
reading = "6.75 µM (active)"

[[record]]
molecule = "Cc1nc2ccccn2c(=O)c1CCN1CCC(C(=O)c2ccc(F)cc2)CC1"
system_tested = "DIV14"
reading = "6.75 µM (active)"

[[record]]
molecule = "COC(=O)[C@H]1[C@H]2C[C@@H]3c4[nH]c5cc(OC)ccc5c4CCN3C[C@H]2C[C@@H](OC(=O)c2cc(OC)c(OC)c(OC)c2)[C@@H]1OC"
system_tested = "DIV14"
reading = "1.69 µM (active)"

[[record]]
molecule = "CC(C)COCC(CN(Cc1ccccc1)c1ccccc1)N1CCCC1 (configuration not stated)"
system_tested = "DIV14"
reading = "inactive"

[[record]]
molecule = "CN(C)C(=O)Oc1ccc[n+](C)c1"
system_tested = "DIV14"
reading = "inactive"

[[record]]
molecule = "O=C(O)CP(=O)(O)O"
system_tested = "DIV14"
reading = "inactive"

[[record]]
molecule = "O=C(O)CN(CCN(CC(=O)O)CC(=O)O)CCN(CC(=O)O)CC(=O)O"
system_tested = "DIV14"
reading = "inactive"

[[record]]
molecule = "O=C(O)CCCCCCCC(=O)O"
system_tested = "DIV14"
reading = "inactive"

[[record]]
molecule = "NC(N)=NC(=O)Cc1c(Cl)cccc1Cl"
system_tested = "DIV14"
reading = "inactive"

[[record]]
molecule = "CCN(Cc1ccncc1)C(=O)C(CO)c1ccccc1 (configuration not stated)"
system_tested = "DIV14"
reading = "inactive"

[[record]]
molecule = "CC1=NS(=O)(=O)c2cc(Cl)ccc2N1"
system_tested = "DIV14"
reading = "inactive"

[[record]]
molecule = "Cc1ccc(S(=O)(=O)NC(=O)NN2CCCCCC2)cc1"
system_tested = "DIV14"
reading = "inactive"

